- Test system: HeLa Kyoto;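 note: synchronized HeLa Kyoto cells (double thymidine block for G1/S, nocodazole release for mitosis), protein amounts in NP-40 versus SDS lysates quantified by mass spectrometry, three biological replicates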
- protocol summary: solubility change mitosis vs G1/S (difference of NP-40 vs SDS log2 ratios) (log2 ratio difference); higher = more soluble in mitosis

seq text	solubility change mitosis (log2)
MVKLAAKCILAGDPAVGKTALAQIFRSDGAHFQKSYTLTTGMDLVVKTVPVPDTGDSVELFIFDSAGKELFSEMLDKLWESPNVLCLVYDVTNEESFNNCSKWLEKARSQAPGISLPGVLVGNKTDLAGRRAVDSAEARAWALGQGLECFETSVKEMENFEAPFHCLAKQFHQLYREKVEVFRALA [IFT27]	-0.134
MVYISNGQVLDSRSQSPWRLSLITDFFWGIAEFVVLFFKTLLQQDVKKRRSYGNSSDSRYDDGRGPPGNPPRRMGRINHLRGPSPPPMAGGUGR [SELK]	0.31
MVHCSCVLFRKYGNFIDKLRLFTRGGSGGMGYPRLGGEGGKGGDVWVVAQNRMTLKQLKDRYPRKRFVAGVGANSKISALKGSKGKDCEIPVPVGISVTDENGKIIGELNKENDRILVAQGGLGGKLLTNFLPLKGQKRIIHLDLKLIADVGLVGFPNAGKSSLLSCVSHAKPAIADYAFTTLKPELGKIMYSDFKQISVADLPGLIEGAHMNKGMGHKFLKHIERTRQLLFVVDISGFQLSSHTQYRTAFETIILLTKELELYKEELQTKPALLAVNKMDLPDAQDKFHELMSQLQNPKDFLHLFEKNMIPERTVEFQHIIPISAVTGEGIEELKNCIRKSLDEQANQENDALHKKQLLNLWISDTMSSTEPPSKHAVTTSKMDII [GTPBP10]	0.0276
